Just for reference, the supplement of paper PMC4858399 is where these values come from.

Test system: Caenorhabditis elegans N2
runDescription: mean nematode size ln(EXT) after 48 h, plate-adjusted (DMSO control set to 6) (ln(EXT), control-adjusted); higher = larger nematodes / less growth inhibition
conditionParameters: 5 µM; exposure time 48 h
measuredQuantity: mean nematode size ln(EXT) (ln)
Number only, no unit.

{"compound": "CC(C)OC(=O)Nc1cccc(Cl)c1 [Chlorpropham]", "experimentalTarget": "Caenorhabditis elegans N2", "mean nematode size ln(EXT) (ln)": 5.9}
{"compound": "CCCCCCCCN(C)CCCCCCCC [N-Methyldioctylamine]", "experimentalTarget": "Caenorhabditis elegans N2", "mean nematode size ln(EXT) (ln)": 5.87}
{"compound": "CCC(C)(C)c1ccc(O)cc1 [4-(2-methylbutan-2-yl)phenol]", "experimentalTarget": "Caenorhabditis elegans N2", "mean nematode size ln(EXT) (ln)": 5.74}
{"compound": "O=C(O)c1cccc(C[C@@H]2COc3ccc(OCc4nc5cc(F)ccc5s4)cc3[C@@H]2O)c1", "experimentalTarget": "Caenorhabditis elegans N2", "mean nematode size ln(EXT) (ln)": 5.79}

Problem: I am curious: what mean nematode size ln(EXT) (ln) value has been reported for CN1CCC[C@H]1c1cccnc1 [Nicotine] ?
Solution: 5.83

Problem: What do you get for CSc1ccc(Oc2ccc(S(N)(=O)=O)cc2CN(C)C)cc1C ?
Solution: 5.86

Problem: What do you get for CCCCSP(=O)(SCCCC)SCCCC [Tribufos] ?
Solution: 5.58

Problem: What do you get for O=C(O)C(F)(F)C(F)(F)C(F)(F)C(F)(F)C(F)(F)C(F)(F)C(F)(F)C(F)(F)C(F)(F)C(F)(F)F [Perfluoroundecanoic acid] ?
Solution: 4.55

---

Test system: Caenorhabditis elegans N2
runDescription: mean nematode size ln(EXT) after 48 h, plate-adjusted (DMSO control set to 6) (ln(EXT), control-adjusted); higher = larger nematodes / less growth inhibition
conditionParameters: 10 µM; exposure time 48 h
measuredQuantity: mean nematode size ln(EXT) (ln)
Number only, no unit.

Answered examples (4):
{"molecule": "CN(C)c1nc(=O)n(C2CCCCC2)c(=O)n1C [Hexazinone]", "experimentalTarget": "Caenorhabditis elegans N2", "valueObserved": 5.92}
{"molecule": "OCCNCCO [Diethanolamine]", "experimentalTarget": "Caenorhabditis elegans N2", "valueObserved": 6.02}
{"molecule": "CC(C)Oc1cc(-n2nc(C(C)(C)C)oc2=O)c(Cl)cc1Cl [Oxadiazon]", "experimentalTarget": "Caenorhabditis elegans N2", "valueObserved": 5.95}
{"molecule": "COP(=O)(OC)O/C(C)=C/C(=O)N(C)C [Dicrotophos]", "experimentalTarget": "Caenorhabditis elegans N2", "valueObserved": 6.07}

Could you now look at the following molecule, please?
Problem: I am curious: what mean nematode size ln(EXT) (ln) value has been reported for CO/N=C(/C(=O)OC)c1ccccc1CO/N=C(\C)c1cccc(C(F)(F)F)c1 [Trifloxystrobin] ?
Solution: 5.82

---

System: Caenorhabditis elegans N2
runDescription: mean nematode size ln(EXT) after 48 h, plate-adjusted (DMSO control set to 6) (ln(EXT), control-adjusted); higher = larger nematodes / less growth inhibition
conditionParameters: 200 µM; exposure time 48 h
measuredQuantity: mean nematode size ln(EXT) (ln)
Number only, no unit.

{"smilesEntry": "O=C(OC[C@H]1O[C@@H](OC(=O)c2cc(O)c(O)c(OC(=O)c3cc(O)c(O)c(O)c3)c2)[C@H](OC(=O)c2cc(O)c(O)c(OC(=O)c3cc(O)c(O)c(O)c3)c2)[C@@H](OC(=O)c2cc(O)c(O)c(OC(=O)c3cc(O)c(O)c(O)c3)c2)[C@@H]1OC(=O)c1cc(O)c(O)c(OC(=O)c2cc(O)c(O)c(O)c2)c1)c1cc(O)c(O)c(OC(=O)c2cc(O)c(O)c(O)c2)c1", "experimentalTarget": "Caenorhabditis elegans N2", "mean nematode size ln(EXT) (ln)": 5.34}
{"smilesEntry": "CCc1c(C(=O)NN2CCCCC2)nn(-c2ccc(Cl)cc2Cl)c1-c1ccc(Br)cc1", "experimentalTarget": "Caenorhabditis elegans N2", "mean nematode size ln(EXT) (ln)": 4.77}

Could you now look at the following molecule, please?
Problem: I am curious: what mean nematode size ln(EXT) (ln) value has been reported for C=CCC1=C(C)[C@@H](OC(=O)[C@@H]2[C@@H](C=C(C)C)C2(C)C)CC1=O ?
Solution: 5.39
